All values here come from patent US12139520B2.

# Target or system: T1, hAMY3R (human, UniProt P30988)
# T1 sequence 1: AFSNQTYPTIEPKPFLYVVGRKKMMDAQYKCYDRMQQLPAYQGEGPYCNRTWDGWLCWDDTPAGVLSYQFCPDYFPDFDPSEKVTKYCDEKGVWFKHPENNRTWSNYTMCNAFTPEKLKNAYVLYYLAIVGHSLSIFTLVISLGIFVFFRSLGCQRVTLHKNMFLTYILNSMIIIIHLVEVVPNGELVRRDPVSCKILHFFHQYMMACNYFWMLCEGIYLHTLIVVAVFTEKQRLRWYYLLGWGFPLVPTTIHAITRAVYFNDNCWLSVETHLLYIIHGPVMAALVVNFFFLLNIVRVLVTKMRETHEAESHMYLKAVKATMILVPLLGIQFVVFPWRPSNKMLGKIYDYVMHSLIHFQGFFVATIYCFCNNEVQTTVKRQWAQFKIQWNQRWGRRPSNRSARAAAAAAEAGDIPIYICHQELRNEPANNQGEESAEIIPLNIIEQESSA
# T1 sequence 2: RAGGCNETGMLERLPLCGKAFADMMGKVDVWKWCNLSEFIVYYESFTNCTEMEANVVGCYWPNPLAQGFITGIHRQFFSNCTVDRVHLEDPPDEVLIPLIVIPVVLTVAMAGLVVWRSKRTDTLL
# Method summary: cell-based or functional assay
Bridge positions count the residues as written; N and C are the ends. Square brackets hold non-standard residues; d marks the D form. Ends that are not written are not given here. Hyp = O=C(O)[C@@H]1C[C@@H](O)CN1; Cit = NC(=O)NCCC[C@H](N)C(=O)O
Note to self: hAMY3R EC50 (cAMP) under 0.01 nM means 1 (yes), ties and anything higher get 0 (no).

Binder: GCRWGTCTVQ[Cit]LAHQIYQFTDKDKDNVAPRSKISPQT[Hyp]-NH2 (disulfide 2-7 (inferred); ends not checked) [SEQ ID NO: 296]
Assigned label: 0 (no)

Binder: KCNTATCTVQRLAHQIYQTDKDKDNVAPPTNVGSNG[Hyp]-NH2 (disulfide 2-7 (inferred); ends not checked) [SEQ ID NO: 195]
Assigned label: 0 (no)

Binder: KCNTATCTVQRLAHQIYQFTAKDKDNVAPPTNVGSNG[Hyp]-NH2 (disulfide 2-7 (inferred); ends not checked) [SEQ ID NO: 24]
Assigned label: 1 (yes)

Binder: KCNTATCATQRLANFLVHSSNNFGAILPSTKIGSNGY [SEQ ID NO: 207]
Assigned label: 0 (no)
